Tested on: HepaRG
procedure-text: LDH release cytotoxicity, % of total lysis control; higher = more cytotoxic
run-conditions: 1 µM; 48 h
Examples of compounds with documented LDH release cytotoxicity follow.
assay-readout: LDH release cytotoxicity (%)

{"columns": ["compound", "measured-result"],
 "data": [
  ["c1cc2c3c(cccc3c1)CC2 [Acenaphthene]", -0.576],
  ["CCCCCc1ccc(N)cc1 [4-Pentylaniline]", -0.976],
  ["CCCCCCCCCCCCc1ccccc1S(=O)(=O)O [Sodium dodecylbenzenesulfonate]", -2.14],
  ["CC(O)CCO (stereo not given) [1,3-Butanediol]", -2.52],
  ["CON=C(C(=O)OC)c1ccccc1CON=C(C)c1cccc(C(F)(F)F)c1 [Trifloxystrobin]", 0.0357],
  ["COc1ccc([N+](=O)[O-])cc1N [5-Nitro-o-anisidine]", -1.28],
  ["O=C(O)C(Cl)(Cl)Cl [Sodium trichloroacetate]", -0.987],
  ["CCCN(CCC)c1c([N+](=O)[O-])cc(S(N)(=O)=O)cc1[N+](=O)[O-] [Oryzalin]", -1.89],
  ["O=Cc1ccco1 [Furfural]", -3.82],
  ["CC(C)(C)c1cccc(C(C)(C)C)c1O [2,6-Di-tert-butylphenol]", -2.85]
]}

====

Tested on: HepaRG
procedure-text: LDH release cytotoxicity, % of total lysis control; higher = more cytotoxic
run-conditions: 1 µM; 48 h

{"columns": ["molecule", "LDH release cytotoxicity / %"],
 "data": [
  ["CCCCCC(=O)O", -1.44],
  ["CCCCCCCC(=O)O", -0.537],
  ["Cc1cc(NC(=O)C(=O)O)cc(C)c1Oc1ccc(O)c2c1CCC2", -1.32],
  ["COC(=O)c1ccccc1N [Methyl 2-aminobenzoate]", -0.0267],
  ["Cn1c(-c2ccccc2)cc(-c2ccccc2)[n+]1C [Difenzoquat metilsulfate]", -4.22],
  ["CCCCCCCCC=CCCCCCCCC(=O)OCC(O)C1OCC(O)C1O (stereo unspecified) [Sorbitan, mono-(9Z)-9-octadecenoate]", -1.65]
]}

====

Examples of compounds with documented LDH release cytotoxicity follow.
Test system: HepaRG
procedure-text: LDH release cytotoxicity, % of total lysis control; higher = more cytotoxic
run-conditions: 100 µM; 48 h
assay-readout: LDH release cytotoxicity (%)

{"columns": ["compound", "tested-on", "units-text", "measured-result"],
 "data": [
  ["C[Si]1(C)O[Si](C)(C)O[Si](C)(C)O[Si](C)(C)O1 [Octamethylcyclotetrasiloxane]", "HepaRG", "%", 1.7],
  ["Cc1ccccc1N [2-Methylaniline]", "HepaRG", "%", 0.285],
  ["CSC(C)=NOC(=O)N(C)SN(C)C(=O)ON=C(C)SC [Thiodicarb]", "HepaRG", "%", 1.18],
  ["CN=C=S [Methyl isothiocyanate]", "HepaRG", "%", 49.2],
  ["Fc1ccccc1C(F)COC1CCC(Nc2[nH]cnc3nncc2-3)CC1 (stereo unspecified) [MK-968]", "HepaRG", "%", 10.8],
  ["CC1(C)NC(=O)NC1=O [5,5-Dimethylhydantoin]", "HepaRG", "%", 1.93]
]}

====

System: HepaRG
procedure-text: LDH release cytotoxicity, % of total lysis control; higher = more cytotoxic
run-conditions: 0.3162278 µM; 48 h
Structures can show the parent of a compound that is named as a salt.
Examples of compounds with documented LDH release cytotoxicity follow.

{"columns": ["compound", "tested-on", "LDH release cytotoxicity, %"],
 "data": [
  ["CCCCOCCOCCO", "HepaRG", -1.79],
  ["CCc1cccc(CC)c1N", "HepaRG", -1.42],
  ["CCCCCCCCO", "HepaRG", -0.614],
  ["c1ccc2c(c1)Nc1ccccc1S2", "HepaRG", -1.08],
  ["CC(C)NCC(O)c1ccc(O)c(O)c1 (configuration not stated) [Isoproterenol hydrochloride]", "HepaRG", 0.959],
  ["CN(C)C(=S)SSC(=S)N(C)C", "HepaRG", -2.29],
  ["CNC(=O)Oc1ccccc1OC(C)C", "HepaRG", 0.0787],
  ["CC(C)(C)c1cc(O)c(C(C)(C)C)cc1O", "HepaRG", -1.72],
  ["Cc1ccc(C(C)C)c(O)c1", "HepaRG", -1.08],
  ["C#CC(O)C(CC)CCCC (configuration not stated)", "HepaRG", -1.73],
  ["CCc1nn(C)c(C(=O)NCc2ccc(C(C)(C)C)cc2)c1Cl", "HepaRG", -2.38],
  ["O=C(O)CCN(C1(C(=O)NO)CCCC1)S(=O)(=O)c1ccc(Oc2ccc(F)cc2)cc1", "HepaRG", -0.589],
  ["CC(C)=CC1C(C(=O)OCc2coc(Cc3ccccc3)c2)C1(C)C (configuration not stated)", "HepaRG", -0.651],
  ["C/C=C/C=C/C(=O)O", "HepaRG", -1.82],
  ["CN1CCN(c2ccccc2C=C2SCCN(c3ccc(Cl)c(Cl)c3)C2=O)CC1", "HepaRG", 0.649],
  ["ClCCOCCCl", "HepaRG", -2.69],
  ["CC(C)NC(=O)N1CC(=O)N(c2cc(Cl)cc(Cl)c2)C1=O", "HepaRG", -0.949],
  ["C#CC1(O)CCC2C3CCC4=CC(=O)CCC4C3CCC21C (configuration not stated)", "HepaRG", -0.373],
  ["OCCOc1ccccc1", "HepaRG", -1.12],
  ["CCN(CC)CCO", "HepaRG", -0.301],
  ["CC(Oc1ccc(Cl)cc1Cl)C(=O)O (configuration not stated)", "HepaRG", -0.517],
  ["OCCCl", "HepaRG", -1.59]
]}
